target: LNCaP type mutant androgen receptor (AR) (Homo sapiens, UniProt P10275, T878A); test: AR-binding inhibition test (LNCaP type), radio-labeled Mibolerone displacement; details: read-out: inhibition rate, LNCaP type
Sequence (P10275 whole entry T878A): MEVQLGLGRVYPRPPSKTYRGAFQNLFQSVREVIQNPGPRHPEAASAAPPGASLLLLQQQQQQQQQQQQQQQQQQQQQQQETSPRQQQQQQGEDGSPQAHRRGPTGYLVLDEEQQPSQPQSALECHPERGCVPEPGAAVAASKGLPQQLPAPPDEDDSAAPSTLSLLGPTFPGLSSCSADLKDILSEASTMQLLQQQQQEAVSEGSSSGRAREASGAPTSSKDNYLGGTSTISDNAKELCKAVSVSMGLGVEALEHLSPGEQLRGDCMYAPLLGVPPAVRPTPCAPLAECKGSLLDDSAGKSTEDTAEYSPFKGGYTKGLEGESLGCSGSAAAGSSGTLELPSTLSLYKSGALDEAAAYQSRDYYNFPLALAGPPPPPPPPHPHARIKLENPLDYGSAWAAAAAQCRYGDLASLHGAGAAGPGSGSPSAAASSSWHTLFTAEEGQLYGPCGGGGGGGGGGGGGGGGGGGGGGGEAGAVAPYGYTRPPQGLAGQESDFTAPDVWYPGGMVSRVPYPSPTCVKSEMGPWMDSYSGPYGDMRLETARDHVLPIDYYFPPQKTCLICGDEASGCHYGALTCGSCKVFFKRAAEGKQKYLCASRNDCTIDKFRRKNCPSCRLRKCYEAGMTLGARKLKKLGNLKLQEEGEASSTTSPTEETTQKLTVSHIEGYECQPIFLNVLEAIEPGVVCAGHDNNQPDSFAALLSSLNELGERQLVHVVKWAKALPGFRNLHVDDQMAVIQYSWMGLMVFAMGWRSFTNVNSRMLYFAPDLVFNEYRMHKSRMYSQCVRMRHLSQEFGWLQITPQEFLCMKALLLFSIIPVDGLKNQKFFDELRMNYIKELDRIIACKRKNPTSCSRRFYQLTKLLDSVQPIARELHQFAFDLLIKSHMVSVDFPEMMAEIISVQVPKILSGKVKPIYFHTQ
Some compounds, each annotated with its measured inhibition at 1 µM.
property_measured: inhibition at 1 µM (%)

INSERT INTO results (compound, value_unit, obs_value) VALUES
  ('Cc1nn(-c2ccc(C#N)c(Cl)c2)c(C)c1Cc1ccc(C(=O)N2CC[C@H](O)C2)cc1 [Example 332]', '%', 78),
  ('Cc1nn(-c2ccc(C#N)c(Cl)c2)c(C)c1Cc1ccc(C(=O)NCC(O)CO)cc1 (racemic) [Example 321]', '%', 84),
  ('Cc1nn(-c2ccc(C#N)c(Cl)c2)c(C)c1Cc1ccc(C(=O)N(C)CCO)cc1 [Example 296]', '%', 64),
  ('Cc1nn(-c2ccc(C#N)c(Cl)c2)c(C)c1Cc1ccc(C(=O)N2CC(O)C2)cc1 [Example 363]', '%', 79),
  ('Cc1nn(-c2ccc(C#N)c(Cl)c2)c(C)c1Cc1ccc(C(=O)N2CCC(O)CC2)cc1 [Example 355]', '%', 51),
  ('Cc1nn(-c2ccc(C#N)c(Cl)c2)c(C)c1Cc1ccc(-c2nnc(C(N)=O)o2)cc1 [Example 350]', '%', 92);
